Assay: Volume of distribution at steady state in Sprague-Dawley rat at 1 mg/kg, iv
Format: ADME, organism-based
Details: in vivo, read-out: Vdss
assay_endpoint: Vd (L/kg)
I only need the number, in L/kg, no unit after it.

IN: Name the recorded Vd of the molecule listed here: `C/C1=C\C[C@H]2CNC(=O)c3cc([nH]c32)-c2cccc3nc(C)c(nc23)NC1`
OUT: 3.1

* * *

Test: Clearance in Sprague-Dawley rat at 1 mg/kg, iv
Format: ADME, organism-based
Details: in vivo
assay_endpoint: clearance (mL/min/kg)
Write the number in mL/min/kg without appending the unit.

IN: Provide one value: measured clearance of `C/C1=C\C[C@H]2CNC(=O)c3cc([nH]c32)-c2cccc3nc(C)c(nc23)NC1`
OUT: 40
